Reported log10 IC50 on Seed linoleate 13S-lipoxygenase-1 (Glycine max) for assorted compounds, compiled from publications.
Sequence (P08170 whole entry): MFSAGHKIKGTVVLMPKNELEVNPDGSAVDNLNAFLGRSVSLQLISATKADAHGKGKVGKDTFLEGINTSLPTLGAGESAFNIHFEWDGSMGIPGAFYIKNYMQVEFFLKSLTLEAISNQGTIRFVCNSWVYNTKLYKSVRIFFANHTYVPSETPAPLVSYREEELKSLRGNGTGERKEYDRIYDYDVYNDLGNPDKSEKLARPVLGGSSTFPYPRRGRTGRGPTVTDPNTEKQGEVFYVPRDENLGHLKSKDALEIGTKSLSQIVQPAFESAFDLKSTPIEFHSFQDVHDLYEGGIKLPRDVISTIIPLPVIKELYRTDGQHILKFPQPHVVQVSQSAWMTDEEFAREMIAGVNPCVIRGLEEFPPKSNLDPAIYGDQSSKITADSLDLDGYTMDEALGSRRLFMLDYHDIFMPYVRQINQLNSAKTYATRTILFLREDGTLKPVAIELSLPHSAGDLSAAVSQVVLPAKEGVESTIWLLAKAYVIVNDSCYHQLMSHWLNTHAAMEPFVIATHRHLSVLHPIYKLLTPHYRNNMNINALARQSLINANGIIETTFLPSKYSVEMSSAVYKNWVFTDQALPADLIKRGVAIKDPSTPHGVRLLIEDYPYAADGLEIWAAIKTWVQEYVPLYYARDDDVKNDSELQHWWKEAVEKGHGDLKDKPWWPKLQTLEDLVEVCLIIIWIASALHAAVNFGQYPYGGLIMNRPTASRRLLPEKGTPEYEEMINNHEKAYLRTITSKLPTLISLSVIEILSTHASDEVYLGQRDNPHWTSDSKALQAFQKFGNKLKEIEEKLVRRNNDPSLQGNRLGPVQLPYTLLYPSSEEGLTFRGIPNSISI
log10 IC50, µM

Here's what some known entries look like.
CCCc1nc(N2CCCCC2)nc2c1Nc1ccccc1S2 :: 2.08
CC[C@H](C)/C=C(C)/C=C/C1=C(Br)C2=CC(=O)C(C)(O)C(=O)C2=CO1 (stereo partly specified) :: 0.51
CCCc1nc(N2CCC(C)CC2)nc2c1Nc1ccccc1S2 :: 1.94
CCCCCCCc1ccc(CCc2cc(O)cc(O)c2C(=O)O)cc1 :: 1.05
CCCCCCCCCCCCCCOc1cccc(O)c1C(=O)O :: 1.74

Hello, please tell me recorded log10 IC50 for this one: `CC(=O)c1cc2ccc(OC/C=C(\C)CC/C=C(\C)CCC=C(C)C)cc2oc1=O`
-0.17
